Organism: Rattus norvegicus
protocolDescription: Open TG-GATES - Regimen: Daily Repeat
Assay type: toxicity, organism-based, Sprague-Dawley
Design: regimen Daily Repeat, gender Male, age 6 weeks
statedConditions: in vivo, po, 0 mg/kg, 72 h, tissue Plasma, route gavage, dose level Control, time 3 day
endpointLabel: TP (g/dL)
Unit g/dL implied. Number only.

Example entries and their recorded answers appear below.
COc1ccc(O)c(C(C)(C)C)c1.COc1ccc(O)cc1C(C)(C)C [BUTYLATED HYDROXYANISOLE] :: 5.8
O=P1(N(CCCl)CCCl)NCCCO1 (stereo unspecified) [CYCLOPHOSPHAMIDE ANHYDROUS] :: 5.5
Cc1cccc(Nc2cc(Cl)nc(SCC(=O)O)n2)c1C :: 5.5

Query :: Name the recorded TP for C=CCO .
Result :: 5.4

Query :: Lookup Cn1c(=O)c2c(ncn2C)n(C)c1=O
Result :: 5.6

Query :: Lookup O=C1CN(/N=C/c2ccc(-c3ccc([N+](=O)[O-])cc3)o2)C(O)=N1
Result :: 5.8
